Values were extracted from the supplement of paper PMC10126150.

System: ATP;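 further: ATP exposure 15 min at 22 °C before imaging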
Assay Explanation: switch fluorescence ratio, 500 uM ATP over buffer (Cy3 cluster intensity, sum of 5 cycles each) (fold (ratio)); higher = stronger signal-on switching upon ATP binding; sequences stand for … in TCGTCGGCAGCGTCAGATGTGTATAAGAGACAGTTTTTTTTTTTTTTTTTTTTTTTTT…TC
Condition Details: aptamer strand: ATP DNA aptamer (quencher-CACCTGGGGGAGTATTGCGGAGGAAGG + anchor), 100 nM annealed; ATP concentration: 500 uM
Experimental Endpoint: switch fluorescence ratio
Please reply with the value in numeric form only.

{"columns": ["Seq Text", "switch fluorescence ratio"],
 "data": [
  ["TTAAGTGTAC", 1.03],
  ["TCTTTATAAA", 1.02],
  ["CAGTGAGCTC", 0.981],
  ["AAGGGGTGTG", 0.998],
  ["TTGCAGGTGT", 1.85],
  ["TATGATCAGG", 0.993]
]}

I would be grateful if you could share the reported switch fluorescence ratio for CTCTTGGAGA .
1.01

Which switch fluorescence ratio is listed for CGTACATTTA ?
1.03

I'd like to know its switch fluorescence ratio. The sequence in question is GACCTCAGAC
1.09

Which switch fluorescence ratio reading was recorded for the sequence TGTTTTATCA ?
0.974

Report switch fluorescence ratio for CGTGTGATGT please.
0.973

Return reported switch fluorescence ratio; argument: AGGGTTGGGC
1.01
